Source listed as patent US20200277374A1.

Documented Percent Siglec-7 Surface Expression, DCs across a set of binders
Biological target: human Siglec-7 expressed on human cells (primary monocytes, dendritic cells, macrophages, NK cells, … (human, UniProt Q9Y286 19-467))
Sequence (Q9Y286 19-467): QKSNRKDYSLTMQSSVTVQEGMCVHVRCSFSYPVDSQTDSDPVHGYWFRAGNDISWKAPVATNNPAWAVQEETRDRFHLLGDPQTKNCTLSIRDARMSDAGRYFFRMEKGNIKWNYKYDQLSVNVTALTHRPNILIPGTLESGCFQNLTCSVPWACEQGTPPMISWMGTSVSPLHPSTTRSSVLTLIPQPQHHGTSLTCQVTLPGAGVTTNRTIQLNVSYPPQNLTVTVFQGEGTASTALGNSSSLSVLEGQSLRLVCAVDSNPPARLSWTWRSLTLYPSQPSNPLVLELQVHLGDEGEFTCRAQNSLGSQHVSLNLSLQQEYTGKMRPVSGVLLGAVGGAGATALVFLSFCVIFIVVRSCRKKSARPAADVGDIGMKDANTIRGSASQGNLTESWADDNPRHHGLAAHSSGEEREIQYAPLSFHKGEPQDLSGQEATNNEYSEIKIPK
Experiment: cell-based or functional assay

binder	Percent Siglec-7 Surface Expression, DCs (%)
anti-Siglec-7 antibody 2G4 (antibody, V domains shown, Variable domains assembled from FR and CDR entries) VH: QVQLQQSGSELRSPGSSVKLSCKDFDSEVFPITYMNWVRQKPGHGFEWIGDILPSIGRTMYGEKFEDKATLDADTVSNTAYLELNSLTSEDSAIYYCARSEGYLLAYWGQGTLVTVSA VL: DIQMTQSLSYLSVSLGGRVTITCKASDHINNWLAWYQQKPGNAPRLLISGATSLETGFPSRFSGSGSGKDYTLSITSLQTEDVATYYCHQYWNTPYTFGGGTRLEIK	98.1
anti-Siglec-7 antibody 1E8 (antibody, V domains shown) VH: QVQLQQSGAELVRPGASVKLSCSASGFNIKGSLLHWIKQRPLQGLEWIGWIDPEDGETRFDPKFQDKAFLTADTSSTTAYLQLSSLTSEDTAIYYCARTEYSNPAWFAYWGQGTLVTVSA VL: DIQMTQFPATLSVTPGDRVSLSCRASQSISDYLHWYQHKSHESPRLLIKYASQSISGIPSRFSGSGSGWDFTLSINSVEPEDVGIYYCQKGLNFPLTFGGGTKLEMK	23
anti-Siglec-7 antibody 2G1 (antibody, V domains shown, Variable domains assembled from FR and CDR entries; the printed VL FR1 looks shortened at its N-terminus; also called 2G11 (misprint in text)) VH: EVKLVESGGTLVKPGGSLKISCAASGFTFSNYDMSWVRQNPEKRLEWVATISSGGDYTYYPDIFKGRFTISRDDAKNALYLQMSSLRSEDTALYYCARHGYGNYDWYFDVWGAGATVTVSS VL: VLTQSPAIMSASPGEKVTMTCSANSSFIYMYWYQQKPGSSPRLLIFDTSNLASGVPIRFSGSGSGTSYSLTISRMEAEDTATYYCQQWSSSPLTFGGGTKLELK	1100
